Value source: ChEMBL document CHEMBL6096698

Test system: BaF3
method: Antiproliferative activity against mouse BaF3 cells stably expressing KIF5B-RET G810C mutant incubated for 72 hrs by CCK8 assay
Type: functional, cell-based
settings: BaF3, 72 h

smiles repr	IC50
COc1ccc(CN2C3CC2CN(c2ccc(-c4cc(N5CCN(CCCCCCC(=O)N[C@H](C(=O)N6C[C@H](O)C[C@H]6C(=O)N[C@@H](C)c6ccc(-c7scnc7C)cc6)C(C)(C)C)CC5)cn5ncc(C#N)c45)cn2)C3)cn1	> 5 µM
COc1ccc(CN2C3CC2CN(c2ccc(-c4cc(N5CCN(C(=O)CCCCCCC(=O)N[C@H](C(=O)N6C[C@H](O)C[C@H]6C(=O)N[C@@H](C)c6ccc(-c7scnc7C)cc6)C(C)(C)C)CC5)cn5ncc(C#N)c45)cn2)C3)cn1	> 5 µM
COc1ccc(CN2C3CC2CN(c2ccc(-c4cc(N5CCN(C(=O)CCCCC(=O)N[C@H](C(=O)N6C[C@H](O)C[C@H]6C(=O)N[C@@H](C)c6ccc(-c7scnc7C)cc6)C(C)(C)C)CC5)cn5ncc(C#N)c45)cn2)C3)cn1	> 5 µM
